What TGI was measured for each of the following?
# Tested on: MALME-3M melanoma
# assayOverview: NCI tumour cell line growth inhibition, 48 h
Answers are plain numbers, in µM.

# batch: return TGI for each of the 4 compounds below
1. O=C1OC2(c3ccc(O)cc3Oc3cc(O)ccc32)c2c1c(-c1ccccc1)c(-c1ccccc1)c(-c1ccccc1)c2-c1ccccc1
2. O=C(Nc1ccc(Br)c(Cl)c1)c1cc(F)ccc1O
3. COC(=O)C1=CC2OC13CC1CCC3(C2=O)C1(C)C (stereo not given)
4. C#C[C@]1(O)CC[C@H]2[C@@H]3CCC4=C/C(=N\OCCN5CCCC5)CC[C@]4(C)[C@H]3CC[C@@]21C

1: 44.6; 2: 1.99; 3: 28.5; 4: 23.4
